From: ChEMBL document CHEMBL4477227

- Test system: Escherichia coli
- procedureSummary: Antibacterial activity against Escherichia coli harboring TolC deletion mutant by microbroth dilution method
- Type: functional
- statedConditions: Escherichia coli; read-out: MIC
// assign y if MIC falls strictly below 10 µg/mL, else n (ties count as n)

[Q] Does COc1ccc2cc1Oc1cc(ccc1OC)CCC(NCc1ccc(C(F)(F)F)cc1)CCCC2 (stereo unspecified) have MIC strictly under 10 µg/mL?
[A] y

[Q] Does COc1ccc2cc1Oc1cc(ccc1OC)CCC(N1CCN(C)CC1)CCCC2 (stereo unspecified) have MIC strictly under 10 µg/mL?
[A] n

[Q] Does COc1ccc2cc1Oc1cc(ccc1OC)CCC(N)CCCC2 (stereo unspecified) have MIC strictly under 10 µg/mL?
[A] n

[Q] Does CCNC1CCCCc2ccc(OC)c(c2)Oc2cc(ccc2OC)CC1 (stereo unspecified) have MIC strictly under 10 µg/mL?
[A] n

[Q] Does COc1ccc2cc1Oc1cccc(c1)CCC(NCCc1ccc(F)cc1)CC2 (stereo unspecified) have MIC strictly under 10 µg/mL?
[A] n

[Q] Does COc1ccc2cc1Oc1cc(ccc1OC)CCC(NC(=O)NCCc1ccccc1)CCCC2 (stereo unspecified) have MIC strictly under 10 µg/mL?
[A] n

[Q] Does COc1ccc2cc1Oc1cc(ccc1OC)CCC(NCCc1ccccc1F)CCCC2 (stereo unspecified) have MIC strictly under 10 µg/mL?
[A] n

[Q] Does COc1ccc2cc1Oc1cccc(c1)CCCCC(NCCc1ccc(F)cc1)CC2 (stereo unspecified) have MIC strictly under 10 µg/mL?
[A] n

[Q] Does COc1ccc2cc1Oc1cc(ccc1OC)CCC(OS(C)(=O)=O)CCCC2 (stereo unspecified) have MIC strictly under 10 µg/mL?
[A] n

[Q] Does COc1ccc2cc1Oc1cc(ccc1OC)CCC(NCCc1ccc3ccccc3c1)CCCC2 (stereo unspecified) have MIC strictly under 10 µg/mL?
[A] y

[Q] Does COc1ccc2cc1Oc1cc(ccc1OC)CCC(NCCc1ccc(Br)cc1)CCCC2 (stereo unspecified) have MIC strictly under 10 µg/mL?
[A] n

---

For each entry below, report its MIC value.
- Tested on: Staphylococcus aureus
- procedureSummary: Antibacterial activity against methicillin-sensitive Staphylococcus aureus ATCC 29213 by microbroth dilution method
- Type: functional
- statedConditions: Staphylococcus aureus, ATCC 29213; read-out: MIC

[Q] Fill in MIC for COc1ccc2cc1Oc1cc(ccc1OC)CCC(OS(=O)(=O)c1ccc(C)cc1)CCCC2 (stereo unspecified) tested with Staphylococcus aureus.
[A] > 100 µg/mL

[Q] Fill in MIC for COc1ccc2cc1Oc1cc(ccc1OC)CCC(NC(=O)CCc1ccccc1)CCCC2 (stereo unspecified) tested with Staphylococcus aureus.
[A] > 100 µg/mL

[Q] Fill in MIC for COc1ccc2cc1Oc1cc(ccc1OC)CCC(OC(=O)CCc1ccccc1)CCCC2 (stereo unspecified) tested with Staphylococcus aureus.
[A] > 100 µg/mL

[Q] Fill in MIC for COc1ccc2cc1Oc1cc(ccc1OC)CCC(Nc1ccc(Cl)cc1)CCCC2 (stereo unspecified) tested with Staphylococcus aureus.
[A] > 100 µg/mL

[Q] Fill in MIC for COc1ccc2cc1Oc1cc(ccc1OC)CCC(NCCc1ccccc1F)CCCC2 (stereo unspecified) tested with Staphylococcus aureus.
[A] 50 µg/mL

[Q] Fill in MIC for COc1ccc2cc1Oc1cccc(c1)CCCCC(NCCc1ccc(F)cc1)CC2 (stereo unspecified) tested with Staphylococcus aureus.
[A] 25 µg/mL

[Q] Fill in MIC for COc1ccc2cc1Oc1cc(ccc1OC)CCC(OC(=O)NCCc1ccccc1)CCCC2 (stereo unspecified) tested with Staphylococcus aureus.
[A] > 100 µg/mL

[Q] Fill in MIC for COc1ccc(CCNC2CCCCc3ccc(OC)c(c3)Oc3cc(ccc3OC)CC2)cc1OC (stereo unspecified) tested with Staphylococcus aureus.
[A] > 100 µg/mL

[Q] Fill in MIC for COc1ccc2cc1Oc1cc(ccc1OC)CCC(NCCc1ccc(F)cc1)CC2 tested with Staphylococcus aureus.
[A] 50 µg/mL

[Q] Fill in MIC for COc1ccc2cc1Oc1cc(ccc1OC)CCC(NCCN(C)C)CCCC2 (stereo unspecified) tested with Staphylococcus aureus.
[A] > 100 µg/mL

[Q] Fill in MIC for COc1ccc2cc1Oc1cc(ccc1OC)CCC(NC(=O)NCCc1ccccc1)CCCC2 (stereo unspecified) tested with Staphylococcus aureus.
[A] > 100 µg/mL

[Q] Fill in MIC for COc1ccc2cc1Oc1cc(ccc1OC)CCC(NCCc1ccc(Cl)cc1)CCCC2 (stereo unspecified) tested with Staphylococcus aureus.
[A] 12.5 µg/mL

[Q] Fill in MIC for COc1ccc2cc1Oc1cc(ccc1OC)CCC(OC(=O)Cc1ccccc1)CCCC2 (stereo unspecified) tested with Staphylococcus aureus.
[A] > 100 µg/mL

[Q] Fill in MIC for Oc1ccc2cc1Oc1cc(ccc1O)CCC(NCCc1ccccc1)CCCC2 (stereo unspecified) tested with Staphylococcus aureus.
[A] > 100 µg/mL

[Q] Fill in MIC for COc1ccc2cc1Oc1cc(ccc1OC)CCC(N)CCCC2 (stereo unspecified) tested with Staphylococcus aureus.
[A] 200 µg/mL

[Q] Fill in MIC for COc1ccc2cc1Oc1cc(ccc1OC)CCC(N[C@@H]1CCCc3ccccc31)CCCC2 (stereo in doubt; 25) tested with Staphylococcus aureus.
[A] > 100 µg/mL

[Q] Fill in MIC for COc1ccc2cc1Oc1cc(ccc1OC)CCC(N(CCO)CCO)CCCC2 (stereo unspecified) tested with Staphylococcus aureus.
[A] > 100 µg/mL

[Q] Fill in MIC for COc1cc2ccc1Oc1cc(ccc1OC)CCCCC(NCCc1ccc(F)cc1)CC2 (stereo unspecified) tested with Staphylococcus aureus.
[A] 25 µg/mL

[Q] Fill in MIC for COc1ccc2cc1Oc1ccc(cc1)CCC(NCCc1ccc(F)cc1)CCCC2 (stereo unspecified) tested with Staphylococcus aureus.
[A] 12.5 µg/mL

[Q] Fill in MIC for COc1ccc2cc1Oc1cc(ccc1OC)CCC(NCCc1ccc(O)cc1)CCCC2 (stereo unspecified) tested with Staphylococcus aureus.
[A] > 100 µg/mL

[Q] Fill in MIC for COc1ccc2cc1Oc1cc(ccc1OC)CCC(NCCc1cccc(F)c1)CCCC2 (stereo unspecified) tested with Staphylococcus aureus.
[A] 50 µg/mL
